System: dopamine receptor(s) (DA-R) in s-LNv
Details: read-out: DA EC50 ZT22; Pdf > Epac50A; rala[CA], s-LNv, LD 12:12, ZT22
REPORTED_PROPERTY: EC50 (µM)
# output: bare number, implied unit µM

Inquiry: Tell me reported EC50 for NCCc1ccc(O)c(O)c1 [DA, dopamine] , tested with dopamine receptor(s) (DA-R) in s-LNv.
Reply text: 6.4

====

System: dopamine receptor(s) (DA-R) in s-LNv
Conditions: read-out: DA EC50 ZT4; Pdf > Epac50A; rala[DN], s-LNv, LD 12:12, ZT4
REPORTED_PROPERTY: EC50 (µM)
Quick reminder: number only, in µM, skip the unit.

Inquiry: Which EC50 value is on record for `NCCc1ccc(O)c(O)c1` ?
Reply text: 29
